Data origin, for the record: patent US9388202B2

Test Protocol: Stability of terbium complexes (luminescence lifetime) in buffers with ligands capable of decomplexing the lanthanide ions
Type: physicochemical
Particulars: Tris 0.1M - KF 400 mM, pH = 7.0
Readout: τ (ms)
// units = ms; emit number, no label

• CCOP(=O)([O-])CN(Cc1cc(C#Cc2ccc(C#CCCCCC(=O)[O-])c3ccccc23)cc(CN(CP(=O)([O-])OCC)CP(=O)([O-])OCC)n1)CP(=O)([O-])OCC.[Na+].[Na+].[Tb+3] = 3.0
• CCOP(=O)([O-])CN(Cc1cc(C#Cc2ccc(C(=O)NCCCC(=O)[O-])c3ccccc23)cc(CN(CP(=O)([O-])OCC)CP(=O)([O-])OCC)n1)CP(=O)([O-])OCC.[Na+].[Na+].[Tb+3] = 2.9
• CCOP(=O)([O-])CN(CC(=O)[O-])Cc1cc(C#Cc2ccc(C#CCCCCC(=O)[O-])c3ccccc23)cc(CN(CC(=O)[O-])CP(=O)([O-])OCC)n1.[Na+].[Na+].[Tb+3] = 2.5

Turning now to a further compound:
Prompt: // Input: CCOP(=O)([O-])CN(CC(=O)[O-])Cc1cc(C#Cc2ccc(C(=O)NCCCC(=O)[O-])c3ccccc23)cc(CN(CC(=O)[O-])CP(=O)([O-])OCC)n1.[Na+].[Na+].[Tb+3] . Output its τ only.
Response: 2.6

###

Known τ of a selection of compounds
Test Protocol: Stability of terbium complexes (luminescence lifetime) in buffers with ligands capable of decomplexing the lanthanide ions
Assay type: physicochemical
Particulars: H2O; estimated error ±5%
// units = ms; emit number, no label

- CCOP(=O)([O-])CN(CC(=O)[O-])Cc1cc(C#Cc2ccc(C(=O)NCCCC(=O)[O-])c3ccccc23)cc(CN(CC(=O)[O-])CP(=O)([O-])OCC)n1.[Na+].[Na+].[Tb+3]: 2.8
- CCOP(=O)([O-])CN(Cc1cc(C#Cc2ccc(C(=O)NCCCC(=O)[O-])c3ccccc23)cc(CN(CP(=O)([O-])OCC)CP(=O)([O-])OCC)n1)CP(=O)([O-])OCC.[Na+].[Na+].[Tb+3]: 3.1

Prompt: // Input: CCOP(=O)([O-])CN(CC(=O)[O-])Cc1cc(C#Cc2ccc(C#CCCCCC(=O)[O-])c3ccccc23)cc(CN(CC(=O)[O-])CP(=O)([O-])OCC)n1.[Na+].[Na+].[Tb+3] . Output its τ only.
Response: 2.6

Prompt: // Input: CCOP(=O)([O-])CN(Cc1cc(C#Cc2ccc(C#CCCCCC(=O)[O-])c3ccccc23)cc(CN(CP(=O)([O-])OCC)CP(=O)([O-])OCC)n1)CP(=O)([O-])OCC.[Na+].[Na+].[Tb+3] . Output its τ only.
Response: 3.2

###

Known Emission φ (quantum luminescence yield) of a selection of compounds
Test Protocol: Emission properties: luminescence lifetime and quantum luminescence yield in water and D2O
Assay type: physicochemical
Particulars: H2O; error estimated ±15%
From the text: Their optical luminescence properties, the luminescence lifetimes and the brightness properties are exceptional, with quantum yields of about 38% for Tb, 18% for Eu and lifetimes of the excited states of greater than 3 milliseconds for the Tb(I-3) and Tb(I-4) complexes. […] The parameters φ and τ represent, respectively, the quantum luminescence yields and the luminescence lifetimes. They may be measured in water and in D2O.
// units = %; emit number, no label

- CCOP(=O)([O-])CN(Cc1cc(C#Cc2ccc(C#CCCCCC(=O)[O-])c3ccccc23)cc(CN(CP(=O)([O-])OCC)CP(=O)([O-])OCC)n1)CP(=O)([O-])OCC.[Eu+3].[Na+].[Na+]: 17

Prompt: // Input: CCOP(=O)([O-])CN(Cc1cc(C#Cc2ccc(C(=O)NCCCC(=O)[O-])c3ccccc23)cc(CN(CP(=O)([O-])OCC)CP(=O)([O-])OCC)n1)CP(=O)([O-])OCC.[Eu+3].[Na+].[Na+] . Output its Emission φ (quantum luminescence yield) only.
Response: 18

Prompt: // Input: CCOP(=O)([O-])CN(CC(=O)[O-])Cc1cc(C#Cc2ccc(C(=O)NCCCC(=O)[O-])c3ccccc23)cc(CN(CC(=O)[O-])CP(=O)([O-])OCC)n1.[Na+].[Na+].[Tb+3] . Output its Emission φ (quantum luminescence yield) only.
Response: 35

###

Known Emission τ (luminescence lifetime) of a selection of compounds
Test Protocol: Emission properties: luminescence lifetime and quantum luminescence yield in water and D2O
Type: physicochemical
Particulars: D2O; error estimated ±5%
// units = ms; emit number, no label

Please review the entries below; each comes with its answer.
* CCOP(=O)([O-])CN(Cc1cc(C#Cc2ccc(C(=O)NCCCC(=O)[O-])c3ccccc23)cc(CN(CP(=O)([O-])OCC)CP(=O)([O-])OCC)n1)CP(=O)([O-])OCC.[Eu+3].[Na+].[Na+] | 2.5
* CCOP(=O)([O-])CN(Cc1cc(C#Cc2ccc(C#CCCCCC(=O)[O-])c3ccccc23)cc(CN(CP(=O)([O-])OCC)CP(=O)([O-])OCC)n1)CP(=O)([O-])OCC.[Eu+3].[Na+].[Na+] | 2.5

Prompt: // Input: CCOP(=O)([O-])CN(CC(=O)[O-])Cc1cc(C#Cc2ccc(C#CCCCCC(=O)[O-])c3ccccc23)cc(CN(CC(=O)[O-])CP(=O)([O-])OCC)n1.[Eu+3].[Na+].[Na+] . Output its Emission τ (luminescence lifetime) only.
Response: 2.4

###

Test Protocol: Emission properties: luminescence lifetime and quantum luminescence yield in water and D2O
Format: physicochemical
Particulars: H2O; error estimated ±15%
Parameter threshold = 30%. Response is t when Emission φ (quantum luminescence yield) meets or exceeds it, else f.

Example entries and their recorded answers appear below.
- CCOP(=O)([O-])CN(CC(=O)[O-])Cc1cc(C#Cc2ccc(C(=O)NCCCC(=O)[O-])c3ccccc23)cc(CN(CC(=O)[O-])CP(=O)([O-])OCC)n1.[Eu+3].[Na+].[Na+]: f
- CCOP(=O)([O-])CN(Cc1cc(C#Cc2ccc(C(=O)NCCCC(=O)[O-])c3ccccc23)cc(CN(CP(=O)([O-])OCC)CP(=O)([O-])OCC)n1)CP(=O)([O-])OCC.[Na+].[Na+].[Tb+3]: t
- CCOP(=O)([O-])CN(CC(=O)[O-])Cc1cc(C#Cc2ccc(C#CCCCCC(=O)[O-])c3ccccc23)cc(CN(CC(=O)[O-])CP(=O)([O-])OCC)n1.[Eu+3].[Na+].[Na+]: f
- CCOP(=O)([O-])CN(Cc1cc(C#Cc2ccc(C#CCCCCC(=O)[O-])c3ccccc23)cc(CN(CP(=O)([O-])OCC)CP(=O)([O-])OCC)n1)CP(=O)([O-])OCC.[Na+].[Na+].[Tb+3]: t

Now look at this entry.
Prompt: Determine whether measured Emission φ (quantum luminescence yield) meets or exceeds 30% for CCOP(=O)([O-])CN(CC(=O)[O-])Cc1cc(C#Cc2ccc(C#CCCCCC(=O)[O-])c3ccccc23)cc(CN(CC(=O)[O-])CP(=O)([O-])OCC)n1.[Na+].[Na+].[Tb+3]
Response: t
